src = ChEMBL document CHEMBL3885861

Organism: Rattus norvegicus
Assay: Open TG-GATES - Regimen: Single
Format: toxicity, organism-based, Sprague-Dawley
Design: regimen Single, gender Male, age 6 weeks
Settings: in vivo, po, 300 mg/kg, 6 h, tissue Plasma, route gavage, dose level Middle
readout: TC
Returns: string containing the number followed by the unit.

Worked set:
>  <molecule>
NC(N)=Nc1nc(CSCCC(N)=NS(N)(=O)=O)cs1 [FAMOTIDINE]

>  <endpoint.value>
73.2 mg/dL

$$$$
>  <molecule>
COc1ccc2[nH]c([S+]([O-])Cc3ncc(C)c(OC)c3C)nc2c1 (centres undefined) [OMEPRAZOLE]

>  <endpoint.value>
72.8 mg/dL

$$$$
>  <molecule>
COC1=CC(=O)C[C@@H](C)[C@]12Oc1c(Cl)c(OC)cc(OC)c1C2=O [GRISEOFULVIN]

>  <endpoint.value>
79 mg/dL

$$$$

Now examine the next entry.
Exercise: Determine from records and report TC for CCOC(=O)CCC(=O)O[C@H]1[C@H](O[C@@H]2[C@@H](C)[C@H](O[C@H]3C[C@@](C)(OC)[C@@H](O)[C@H](C)O3)[C@@H](C)C(=O)O[C@H](CC)[C@@](C)(O)[C@H](O)[C@@H](C)C(=O)[C@H](C)C[C@@]2(C)O)O[C@H](C)C[C@@H]1N(C)C [ERYTHROMYCIN ETHYLSUCCINATE]
Key: 75.6 mg/dL
